- assayInfo: Thermostability (T50, 15 min incubation, residual activity, Boltzmann fit)
- Assay type: physicochemical
- assaySetup: 15 minutes incubation; Table 4
readoutLabel: T50 (thermostability)
Lab note: write the figure by itself, no unit.

Please review the entries below; each comes with its answer.
GlaTgs2-V34M: GlaTgs2 variant, valine at position 34 replaced by methionine, SEQ ID NO: 6 (protein, listed as Giardia lamblia) MSTWLLDSKCVERMKWLFSDLPEEKRVMIKMNEMAFFSVTPAVYADEVARMMRTVLALLGKPPYAVIDGTACVGGDTRLLAKHFDMTVAIERDPETYALLQDNLTTWGVDAKTISGDTAALIPQFWTLIGAVATFSLYLDPPWGGVDYRSQTDIQLTLGSLAVEDVVNRAFEAHLSMKLAVLKLPRNYNCGYLFRKLGKHEVFRITQGNFFVFFVARRGSRVKEHGRTAMLQLRKAREEAKARSEETKEDGETRGSGE = 49.0
GlaTgs2-WT: wild type trimethylguanosine synthase 2 from Giardia lamblia, 258 amino acids, SEQ ID NO: 1 (protein, listed as Giardia lamblia) MSTWLLDSKCVERMKWLFSDLPEEKRVMIKMNEVAFFSVTPAVYADEVARMMRTVLALLGKPPYAVIDGTACVGGDTRLLAKHFDMTVAIERDPETYALLQDNLTTWGVDAKTISGDTAALIPQFWTLIGAVATFSLYLDPPWGGVDYRSQTDIQLTLGSLAVEDVVNRAFEAHLSMKLAVLKLPRNYNCGYLFRKLGKHEVFRITQGNFFVFFVARRGSRVKEHGRTAMLQLRKAREEAKARSEETKEDGETRGSGE = 39.9
GlaTgs2-V34G: GlaTgs2 variant, valine at position 34 replaced by glycine, SEQ ID NO: 5 (protein, listed as Giardia lamblia) MSTWLLDSKCVERMKWLFSDLPEEKRVMIKMNEGAFFSVTPAVYADEVARMMRTVLALLGKPPYAVIDGTACVGGDTRLLAKHFDMTVAIERDPETYALLQDNLTTWGVDAKTISGDTAALIPQFWTLIGAVATFSLYLDPPWGGVDYRSQTDIQLTLGSLAVEDVVNRAFEAHLSMKLAVLKLPRNYNCGYLFRKLGKHEVFRITQGNFFVFFVARRGSRVKEHGRTAMLQLRKAREEAKARSEETKEDGETRGSGE = 44.8

Kindly consider the entry below.
Q: T50 (thermostability) for GlaTgs2-V34A: GlaTgs2 variant, valine at position 34 replaced by alanine, SEQ ID NO: 4 (protein, listed as Giardia lamblia) MSTWLLDSKCVERMKWLFSDLPEEKRVMIKMNEAAFFSVTPAVYADEVARMMRTVLALLGKPPYAVIDGTACVGGDTRLLAKHFDMTVAIERDPETYALLQDNLTTWGVDAKTISGDTAALIPQFWTLIGAVATFSLYLDPPWGGVDYRSQTDIQLTLGSLAVEDVVNRAFEAHLSMKLAVLKLPRNYNCGYLFRKLGKHEVFRITQGNFFVFFVARRGSRVKEHGRTAMLQLRKAREEAKARSEETKEDGETRGSGE ?
A: 40.4
